Listing of entries alongside the reported Cell viability (% @10 μM).
Tested on: Tau-BiFC cells
Assay: Cell viability (cytotoxicity) in tau-BiFC cells, count of stained nuclei
Format: cell-based
Conditions: compound 10 μM; Forskolin-only group = 100% cell viability
// units = %; emit number, no label

Reference set (6 entries):
{"Molecule": "Cc1cnc(NC(=O)c2ccc(NN=C(C#N)C#N)cc2C)cn1 [Compound 52]", "Quantity Unit": "%", "Cell viability (% @10 μM)": 120.2}
{"Molecule": "N#CC(C#N)=NNc1ccc(NC(=O)c2nc3ccccc3s2)nc1 [Compound 31]", "Quantity Unit": "%", "Cell viability (% @10 μM)": 114.3}
{"Molecule": "Cc1cncc(NC(=O)c2ccc(NN=C(C#N)C#N)cc2)c1 [Compound 48]", "Quantity Unit": "%", "Cell viability (% @10 μM)": 122.3}
{"Molecule": "Cc1cnc(C(=O)Nc2nc3ncc(NN=C(C#N)C#N)cc3s2)cn1 [Compound 33]", "Quantity Unit": "%", "Cell viability (% @10 μM)": 125}
{"Molecule": "Cc1cc(NN=C(C#N)C#N)ccc1Oc1cncnc1 [Compound 81]", "Quantity Unit": "%", "Cell viability (% @10 μM)": 116.2}
{"Molecule": "COc1ccc(NC(=O)c2ccc(NN=C(C#N)C#N)cc2)cc1 [Compound 44]", "Quantity Unit": "%", "Cell viability (% @10 μM)": 70.4}

[in] Any idea what Cell viability (% @10 μM) was measured for N#CC(C#N)=NNc1ccc(NC(=O)c2ncccn2)nc1 [Compound 29] ?
[out] 139.9

[in] Try this molecule too: Cc1ccccc1C(=O)Nc1ccc(NN=C(C#N)C#N)cn1 [Compound 25]
[out] 122.4

[in] Try this molecule too: N#CC(C#N)=NNc1ccc(C(=O)Nc2cccnc2)cc1 [Compound 49]
[out] 117.2

[in] Try this molecule too: N#CC(C#N)=NNc1ccc(C(=O)Nc2cncnc2)cc1 [Compound 50]
[out] 116.4

[in] Try this molecule too: Cc1cc(F)cc(C(=O)Nc2ccc(NN=C(C#N)C#N)cn2)c1 [Compound 19]
[out] 119.1
